Target: PLpro (Severe acute respiratory syndrome coronavirus 2 (2019-nCoV) (SARS-CoV-2), UniProt P0DTD1)
Experiment: Assay for PLpro inhibitory activity (Ub-AMC fluorescence; single point inhibition test and IC50 determination)
Assay type: biochemical
Settings: read-out: inhibition of PLpro (1 μM), 1 μM test compound, 100 nM PLpro, 10 μM Ub-AMC, 37° C. 30 min
quantity-name: inhibition at 1 µM (%)

molecule | numeric-result
Cc1ccc(NC2CN3CCC2CC3)cc1C(=O)NC1(c2ccc(F)c3ncccc23)CC1 (centres unmarked) | 40.8
Cc1ccc(N2CCNCC2)cc1C(=O)NC1(c2cccc(-c3cccs3)c2)CC1 | 56.5
Cc1ccc(NC2CCNC2)cc1C(=O)NC1(c2ccc(F)c3ncccc23)CC1 (centres unmarked) | 44.9
Cc1ccc(N2CC(N(C)C)C2)cc1C(=O)NC1(c2cccc3c(Cl)cccc23)CC1 | 98.1
Cc1ccc(N2CCN(C3CC3)CC2)cc1C(=O)NC1(c2ccc(F)c3ncccc23)CC1 | 81.4
Cc1ccc(N2CC(N(C)C)C2)cc1C(=O)NC1(c2ccccc2)CC1 | 4.9
Cc1ccc(N2CC(N(C)C)C2)cc1C(=O)NC1(c2ccnc3ccccc23)CC1 | 89.7
Cc1ccc(N2CCN(C3CC3)CC2)cc1C(=O)NC1(c2cccc3ncccc23)CC1 | 77.6

The reported numbers originate from patent US20250289826A1.
